As shown below, each of these compounds has a reported IC50 value.
- system: NAMPT (human, recombinant, C-terminally His-tagged) (Homo sapiens, UniProt P43490)
- Sequence (P43490 whole entry): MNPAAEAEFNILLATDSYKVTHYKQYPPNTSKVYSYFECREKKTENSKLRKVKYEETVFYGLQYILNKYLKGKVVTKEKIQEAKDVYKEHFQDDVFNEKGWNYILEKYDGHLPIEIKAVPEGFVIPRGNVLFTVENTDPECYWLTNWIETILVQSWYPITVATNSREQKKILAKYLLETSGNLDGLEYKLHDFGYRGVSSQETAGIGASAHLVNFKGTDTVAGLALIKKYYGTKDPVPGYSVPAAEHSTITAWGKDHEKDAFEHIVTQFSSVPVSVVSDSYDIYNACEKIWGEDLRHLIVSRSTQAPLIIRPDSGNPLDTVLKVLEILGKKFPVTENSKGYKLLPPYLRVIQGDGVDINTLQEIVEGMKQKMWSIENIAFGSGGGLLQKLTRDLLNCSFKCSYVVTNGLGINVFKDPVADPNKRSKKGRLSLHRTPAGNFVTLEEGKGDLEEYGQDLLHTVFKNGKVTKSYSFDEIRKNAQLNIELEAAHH
- experimentDescription: Time-Resolved Fluorescence Resonance Energy Transfer (TR-FRET) Binding Assay of NAMPT
- assayContext: without substrates; 6.8 nM NAMPT, 200 nM probe, 3 hours equilibration

[
  {
    "compound": "O=C(CC1CCCC1)Nc1ccc(C(=O)NCc2ccn3ccnc3c2)cc1F",
    "system": "NAMPT (human, recombinant, C-terminally His-tagged) (Homo sapiens, UniProt P43490)",
    "valueQualifier": "=",
    "IC50 / nM": 494
  },
  {
    "compound": "Cc1noc(C)c1C(=O)N1CCC(c2ccc(C(=O)NCc3ccn4ccnc4c3)cc2)CC1",
    "system": "NAMPT (human, recombinant, C-terminally His-tagged) (Homo sapiens, UniProt P43490)",
    "valueQualifier": "=",
    "IC50 / nM": 86.4
  },
  {
    "compound": "O=C(NCc1ccn2ccnc2c1)Nc1ccc(OC2CCN(C(=O)c3ccc(F)cc3F)CC2)cc1",
    "system": "NAMPT (human, recombinant, C-terminally His-tagged) (Homo sapiens, UniProt P43490)",
    "valueQualifier": "=",
    "IC50 / nM": 166
  },
  {
    "compound": "CC(C)S(=O)(=O)N1CCC(c2ccc(C(=O)NCc3ccn4ccnc4c3)cc2)C1 (stereo not shown)",
    "system": "NAMPT (human, recombinant, C-terminally His-tagged) (Homo sapiens, UniProt P43490)",
    "valueQualifier": "=",
    "IC50 / nM": 313
  },
  {
    "compound": "O=C(NCc1ccn2ccnc2c1)c1ccc(N2CC(CO)OC2=O)s1 (stereo not shown)",
    "system": "NAMPT (human, recombinant, C-terminally His-tagged) (Homo sapiens, UniProt P43490)",
    "valueQualifier": "=",
    "IC50 / nM": 120
  },
  {
    "compound": "CC1(C(=O)N2CC(c3ccc(C(=O)NCc4ccn5ccnc5c4)cc3)C2)CCCCC1",
    "system": "NAMPT (human, recombinant, C-terminally His-tagged) (Homo sapiens, UniProt P43490)",
    "valueQualifier": "=",
    "IC50 / nM": 123
  },
  {
    "compound": "CC(C)(C)OC(=O)N1CC=C(c2ccc(CC(=O)Nc3ccc4nccn4c3)cc2)CC1",
    "system": "NAMPT (human, recombinant, C-terminally His-tagged) (Homo sapiens, UniProt P43490)",
    "valueQualifier": "=",
    "IC50 / nM": 1980
  },
  {
    "compound": "CC(C)(O)C(=O)N1CC(Oc2ccc(NC(=O)NCc3ccn4ccnc4c3)cc2)C1",
    "system": "NAMPT (human, recombinant, C-terminally His-tagged) (Homo sapiens, UniProt P43490)",
    "valueQualifier": "=",
    "IC50 / nM": 292
  },
  {
    "compound": "O=C(NCc1ccn2ccnc2c1)c1ccc(C2CCN(C(=O)[C@H]3CCOC3)C2)cc1 (stereo partly shown)",
    "system": "NAMPT (human, recombinant, C-terminally His-tagged) (Homo sapiens, UniProt P43490)",
    "valueQualifier": "=",
    "IC50 / nM": 986
  },
  {
    "compound": "O=C(NCc1ccc2nccn2c1)c1cnc(N(CC2CCCO2)C(=O)CCc2ccno2)s1 (stereo not shown)",
    "system": "NAMPT (human, recombinant, C-terminally His-tagged) (Homo sapiens, UniProt P43490)",
    "valueQualifier": "=",
    "IC50 / nM": 67
  },
  {
    "compound": "CC[C@@H](O)Cn1cc(-c2ccc(C(=O)NCc3ccc4nccn4c3)s2)cn1",
    "system": "NAMPT (human, recombinant, C-terminally His-tagged) (Homo sapiens, UniProt P43490)",
    "valueQualifier": "=",
    "IC50 / nM": 584
  },
  {
    "compound": "CC(C)C(=O)N1CCC(c2ncc(C(=O)NCc3ccn4ccnc4c3)s2)CC1",
    "system": "NAMPT (human, recombinant, C-terminally His-tagged) (Homo sapiens, UniProt P43490)",
    "valueQualifier": "=",
    "IC50 / nM": 1480
  },
  {
    "compound": "O=C(NCc1ccn2ccnc2c1)Nc1ccc(OC2CN(C(=O)CC3CC3)C2)cc1",
    "system": "NAMPT (human, recombinant, C-terminally His-tagged) (Homo sapiens, UniProt P43490)",
    "valueQualifier": "=",
    "IC50 / nM": 150
  },
  {
    "compound": "O=C(NCc1ccn2ccnc2c1)c1ccc(OC2CN(C(=O)c3ccccc3)C2)cc1",
    "system": "NAMPT (human, recombinant, C-terminally His-tagged) (Homo sapiens, UniProt P43490)",
    "valueQualifier": "=",
    "IC50 / nM": 869
  },
  {
    "compound": "CC(C)CCNC(=O)c1cnc(NC(=O)NCc2ccn3ccnc3c2)s1",
    "system": "NAMPT (human, recombinant, C-terminally His-tagged) (Homo sapiens, UniProt P43490)",
    "valueQualifier": "=",
    "IC50 / nM": 220
  },
  {
    "compound": "O=C(NCc1ccn2ccnc2c1)c1ccc(C2CN(C(=O)c3ccsc3)C2)cc1",
    "system": "NAMPT (human, recombinant, C-terminally His-tagged) (Homo sapiens, UniProt P43490)",
    "valueQualifier": "=",
    "IC50 / nM": 263
  },
  {
    "compound": "O=C(NCc1ccn2ccnc2c1)c1ccc(C2CCN(C(=O)Cc3ccc(F)cc3)C2)s1 (stereo not shown)",
    "system": "NAMPT (human, recombinant, C-terminally His-tagged) (Homo sapiens, UniProt P43490)",
    "valueQualifier": "=",
    "IC50 / nM": 132
  },
  {
    "compound": "CC(C)C(=O)N1CC=C(c2ccc(NC(=O)Nc3ccc4nccn4c3)cc2)CC1",
    "system": "NAMPT (human, recombinant, C-terminally His-tagged) (Homo sapiens, UniProt P43490)",
    "valueQualifier": "=",
    "IC50 / nM": 243
  },
  {
    "compound": "O=C(NCc1ccn2ccnc2c1)c1ccc(C2CN(C(=O)c3ccc(F)cc3)C2)cc1",
    "system": "NAMPT (human, recombinant, C-terminally His-tagged) (Homo sapiens, UniProt P43490)",
    "valueQualifier": "=",
    "IC50 / nM": 203
  },
  {
    "compound": "O=C(NCc1ccn2ccnc2c1)c1ccc(-c2cnn(CC3(F)CCOCC3)c2)s1",
    "system": "NAMPT (human, recombinant, C-terminally His-tagged) (Homo sapiens, UniProt P43490)",
    "valueQualifier": "=",
    "IC50 / nM": 36.4
  },
  {
    "compound": "O=C(NCc1ccn2ccnc2c1)Nc1ccc(C2CCN(C(=O)C3CCCO3)CC2)cc1 (stereo not shown)",
    "system": "NAMPT (human, recombinant, C-terminally His-tagged) (Homo sapiens, UniProt P43490)",
    "valueQualifier": "=",
    "IC50 / nM": 74.2
  },
  {
    "compound": "O=C(NCc1ccc2nccn2c1)c1ccc(-c2cnn(CC3CCOCC3)c2)s1",
    "system": "NAMPT (human, recombinant, C-terminally His-tagged) (Homo sapiens, UniProt P43490)",
    "valueQualifier": "=",
    "IC50 / nM": 46.6
  },
  {
    "compound": "O=C(NCc1ccn2ccnc2c1)c1ccc(O[C@@H]2CCN(C(=O)[C@H]3CCOC3)C2)cc1",
    "system": "NAMPT (human, recombinant, C-terminally His-tagged) (Homo sapiens, UniProt P43490)",
    "valueQualifier": "=",
    "IC50 / nM": 7560
  },
  {
    "compound": "CC(C)Cn1cc(-c2ccc(NC(=O)NCc3ccc4nccn4c3)cc2)cn1",
    "system": "NAMPT (human, recombinant, C-terminally His-tagged) (Homo sapiens, UniProt P43490)",
    "valueQualifier": "=",
    "IC50 / nM": 143
  },
  {
    "compound": "O=C(NCc1ccn2ccnc2c1)c1ccc(C2CCN(C(=O)c3cccnc3)C2)s1 (stereo not shown)",
    "system": "NAMPT (human, recombinant, C-terminally His-tagged) (Homo sapiens, UniProt P43490)",
    "valueQualifier": "=",
    "IC50 / nM": 95.7
  },
  {
    "compound": "O=C(CC(F)(F)F)NC1(c2ccc(C(=O)NCc3ccn4ccnc4c3)s2)CCC1",
    "system": "NAMPT (human, recombinant, C-terminally His-tagged) (Homo sapiens, UniProt P43490)",
    "valueQualifier": "=",
    "IC50 / nM": 2860
  },
  {
    "compound": "CC[C@H](C)C(=O)N1CC(Oc2ccc(C(=O)NCc3ccn4ccnc4c3)cc2)C1",
    "system": "NAMPT (human, recombinant, C-terminally His-tagged) (Homo sapiens, UniProt P43490)",
    "valueQualifier": "=",
    "IC50 / nM": 681
  },
  {
    "compound": "O=C(NCc1ccn2ccnc2c1)c1ccc(OC2CCN(C(=O)C3CCOCC3)CC2)cc1",
    "system": "NAMPT (human, recombinant, C-terminally His-tagged) (Homo sapiens, UniProt P43490)",
    "valueQualifier": "=",
    "IC50 / nM": 2710
  },
  {
    "compound": "O=C(NCc1ccn2ccnc2c1)c1ccc(C(=O)N2CCCCC2)cc1",
    "system": "NAMPT (human, recombinant, C-terminally His-tagged) (Homo sapiens, UniProt P43490)",
    "valueQualifier": ">",
    "IC50 / nM": 10000
  },
  {
    "compound": "O=C(Nc1ccc(C(=O)NCCCN2CCCCC2)cc1)Nc1ccc2nccn2c1",
    "system": "NAMPT (human, recombinant, C-terminally His-tagged) (Homo sapiens, UniProt P43490)",
    "valueQualifier": "=",
    "IC50 / nM": 1720
  },
  {
    "compound": "O=C(Nc1ccc(NC(=O)C2CCOCC2)cc1)Nc1ccc2nccn2c1",
    "system": "NAMPT (human, recombinant, C-terminally His-tagged) (Homo sapiens, UniProt P43490)",
    "valueQualifier": "=",
    "IC50 / nM": 773
  },
  {
    "compound": "CC(C)(C)OC(=O)N1CCC(Oc2ccc(C(=O)NCc3ccn4ccnc4c3)cc2)CC1",
    "system": "NAMPT (human, recombinant, C-terminally His-tagged) (Homo sapiens, UniProt P43490)",
    "valueQualifier": "=",
    "IC50 / nM": 1340
  },
  {
    "compound": "CC(C)(O)C(=O)N1CC(c2ccc(NC(=O)NCc3ccn4ccnc4c3)cc2)C1",
    "system": "NAMPT (human, recombinant, C-terminally His-tagged) (Homo sapiens, UniProt P43490)",
    "valueQualifier": "=",
    "IC50 / nM": 1140
  },
  {
    "compound": "COCCC(=O)N(CC1CCOCC1)c1ncc(C(=O)NCc2ccc3nccn3c2)s1",
    "system": "NAMPT (human, recombinant, C-terminally His-tagged) (Homo sapiens, UniProt P43490)",
    "valueQualifier": "=",
    "IC50 / nM": 1430
  }
]
